Below: a set of entries, each annotated with reported IC50.
# Tested on: CEM cells HIV-1 protection, formazan growth assay
# measurement.notes: NCI AIDS Antiviral Assay
# test.parameters: measured here: growth of uninfected CEM cells

Sample answers from the record:
INSERT INTO assay_data (compound, study_target, data_value) VALUES
  ('c1ccc2nc3c(nc2c1)sc1nc2ccccc2n13', 'CEM cells HIV-1 protection, formazan growth assay', '> 200 µM'),
  ('O=C(Nc1sccc1S(=O)(=O)c1ccccc1)c1ccccc1', 'CEM cells HIV-1 protection, formazan growth assay', '11.7 µM'),
  ('CC(C)(C)NC(=O)N1N=C(c2ccccc2)C1c1ccccc1 (stereo not drawn)', 'CEM cells HIV-1 protection, formazan growth assay', '26.9 µM'),
  ('COc1ccc(CNc2nc3cc(C(F)(F)F)ccc3nc2C)cc1OC', 'CEM cells HIV-1 protection, formazan growth assay', '14.5 µM'),
  ('CC(=O)OC1C=CC(SC23CC4CC(CC(C4)C2)C3)N(C(C)=O)C1SC12CC3CC(CC(C3)C1)C2 (stereo not drawn)', 'CEM cells HIV-1 protection, formazan growth assay', '> 200 µM');

Ask | Identify the measured IC50 of "COc1ccc(-c2coc3cc(O)cc(O)c3c2=O)cc1" for CEM cells HIV-1 protection, formazan growth assay.
Reply | 12.6 µM

Ask | Identify the measured IC50 of "COc1cc2c(c3oc4c(c(=O)c13)CCCC4)CCC(C)(C)O2" for CEM cells HIV-1 protection, formazan growth assay.
Reply | 23.4 µM

Ask | Identify the measured IC50 of "CC1(C)O[C@@H]2COC(=O)[C@@H]2O1" for CEM cells HIV-1 protection, formazan growth assay.
Reply | > 200 µM

Ask | Identify the measured IC50 of COc1ccc(C2OC(=O)c3ncccc32)cc1 (stereo not drawn) for CEM cells HIV-1 protection, formazan growth assay.
Reply | > 200 µM

Ask | Identify the measured IC50 of "COC(=O)C1(C(=O)OC)Cc2ccc(OC)cc2C2=C1C(=O)c1ccccc1C2=O" for CEM cells HIV-1 protection, formazan growth assay.
Reply | 0.275 µM

Ask | Identify the measured IC50 of COc1cc2c(cc1O)C(=O)OC1CC=C3CC[N@@+](C)([O-])[C@H]3C21 (stereo partly drawn) for CEM cells HIV-1 protection, formazan growth assay.
Reply | > 195 µM

Ask | Identify the measured IC50 of "COc1ccccc1C(=O)c1c(NCc2ccccc2)c(=O)c1=O" for CEM cells HIV-1 protection, formazan growth assay.
Reply | 93.3 µM

Ask | Identify the measured IC50 of "CCN(CC)CCO/N=C1\CC[C@H]2[C@@H]3CCc4cc(OC)ccc4[C@H]3CC[C@]12C" for CEM cells HIV-1 protection, formazan growth assay.
Reply | 2.69 µM

Ask | Identify the measured IC50 of "Cc1cccc(C)c1NC(=O)C(=O)CC(=O)c1cccc([N+](=O)[O-])c1" for CEM cells HIV-1 protection, formazan growth assay.
Reply | > 525 µM

Ask | Identify the measured IC50 of "COc1cc(COC(=O)N(CC(=O)O)c2ccccc2)c([N+](=O)[O-])cc1OC" for CEM cells HIV-1 protection, formazan growth assay.
Reply | 295 µM

Ask | Identify the measured IC50 of "CCC(=O)NC(Nc1cccc(F)c1C)(C(F)(F)F)C(F)(F)F" for CEM cells HIV-1 protection, formazan growth assay.
Reply | > 200 µM

Ask | Identify the measured IC50 of "Cc1cc(NCCCCCCCNc2cc(C)nc3cc(N)ccc23)c2ccc(N)cc2n1" for CEM cells HIV-1 protection, formazan growth assay.
Reply | 8.71 µM

Ask | Identify the measured IC50 of "CSc1ncc2c(C#N)c3[nH]c4ccccc4n3c(=O)c2n1" for CEM cells HIV-1 protection, formazan growth assay.
Reply | 6.46 µM

Ask | Identify the measured IC50 of "CCC(CCNC(=O)c1ccccc1)(CCNC(=O)c1ccccc1)[N+](=O)[O-]" for CEM cells HIV-1 protection, formazan growth assay.
Reply | > 200 µM

Ask | Identify the measured IC50 of "CC(C)(Oc1ccc(C(=O)c2ccc(Cl)cc2)cc1Cl)C(=O)Nc1c(Cl)cccc1Cl" for CEM cells HIV-1 protection, formazan growth assay.
Reply | > 7.59 µM

Ask | Identify the measured IC50 of "CC(C)(C)C(=O)CS(=O)(=O)O" for CEM cells HIV-1 protection, formazan growth assay.
Reply | > 200 µM

Ask | Identify the measured IC50 of "COC(=O)c1ccc(/C=C2\CCc3ccccc3C2=O)cc1" for CEM cells HIV-1 protection, formazan growth assay.
Reply | > 200 µM

Ask | Identify the measured IC50 of "[N-]=[N+]=C1C(=O)NCN=C1c1ccccc1" for CEM cells HIV-1 protection, formazan growth assay.
Reply | > 339 µM
